assay: Pharmacokinetic study of KW-3902, single intravenous dose, serum concentrations; format: in vivo; conditions: human, 40 mg, single intravenous dose 40 mg, Group 4, serum, read-out: T1/2 Mean (converted)

{"columns": ["Compound", "half-life [min]"],
 "data": [
  ["CCCn1c(=O)c2[nH]c(C34CC5CC(CC3C5)C4)nc2n(CCC)c1=O [KW-3902, 8-(3-noradamantyl)-1,3-dipropylxanthine]", 966]
]}

* * *

assay: Pharmacokinetic study of KW-3902, single intravenous dose, serum concentrations; assay type: in vivo; conditions: human, 10 mg, single intravenous dose 10 mg, Group 2, serum

{"columns": ["Structure smiles string", "MRT inf"],
 "data": [
  ["CCCn1c(=O)c2[nH]c(C34CC5CC(CC3C5)C4)nc2n(CCC)c1=O", "8.7 h"]
]}
